system tested: T1, EsCas13d, nuclease-dead (Eubacterium siraeum, UniProt B0MS50, R295A;H300A;R849A;H854A)
T1 sequence: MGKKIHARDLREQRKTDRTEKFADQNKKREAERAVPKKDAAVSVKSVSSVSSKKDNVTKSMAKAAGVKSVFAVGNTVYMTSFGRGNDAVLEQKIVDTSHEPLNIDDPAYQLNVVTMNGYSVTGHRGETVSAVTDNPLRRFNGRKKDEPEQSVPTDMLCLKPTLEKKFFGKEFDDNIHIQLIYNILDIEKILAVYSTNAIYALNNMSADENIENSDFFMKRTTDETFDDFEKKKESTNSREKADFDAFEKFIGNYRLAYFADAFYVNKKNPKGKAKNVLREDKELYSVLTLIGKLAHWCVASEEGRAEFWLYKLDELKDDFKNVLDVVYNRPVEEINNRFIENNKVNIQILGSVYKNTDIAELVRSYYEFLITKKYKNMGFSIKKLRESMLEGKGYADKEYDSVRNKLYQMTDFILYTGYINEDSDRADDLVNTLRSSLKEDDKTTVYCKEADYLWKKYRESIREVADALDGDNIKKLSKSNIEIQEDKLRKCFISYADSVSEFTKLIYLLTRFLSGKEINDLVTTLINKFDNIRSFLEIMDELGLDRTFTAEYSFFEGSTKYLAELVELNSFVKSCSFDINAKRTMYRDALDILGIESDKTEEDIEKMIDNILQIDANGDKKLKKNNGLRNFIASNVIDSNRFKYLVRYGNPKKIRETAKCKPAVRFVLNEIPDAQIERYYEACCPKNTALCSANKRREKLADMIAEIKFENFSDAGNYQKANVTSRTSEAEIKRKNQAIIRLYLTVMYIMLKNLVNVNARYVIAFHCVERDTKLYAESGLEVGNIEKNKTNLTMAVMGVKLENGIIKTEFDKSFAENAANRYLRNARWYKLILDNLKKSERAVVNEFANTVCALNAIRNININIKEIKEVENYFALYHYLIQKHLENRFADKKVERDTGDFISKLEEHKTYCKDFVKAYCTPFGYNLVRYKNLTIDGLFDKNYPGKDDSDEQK
assay summary: crRNA (strand 1, pre-loaded); Mg2+; 40 mM Tris-HCl pH 7.5, 150 mM NaCl, 6 mM MgCl2, 1 mM DTT, 0.1% Tween-20, 0.2 mg/ml BSA; 25 C; 10 min per concentration, then washed
protocol conditions: tags: His6-TwinStrep-SUMO cleaved; N-terminal SNAP kept (SNAP-Surface 488); label: 3' end held by stalled T7 RNA polymerase
Here the recorded Kd is given for each entry.

Check out these entries, answers already filled in.
binder: target 1 MT 5'PFS GCG 3'PFS CAG (mixed) RNA 1: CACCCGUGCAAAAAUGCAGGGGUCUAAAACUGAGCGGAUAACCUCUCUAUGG RNA 2: GGGAAUGGAUCCACAUCUACGAAUUCGCGCCAUAGAGAGGUUAUCCGCUCACAGAGAUCGGAAGAGCACACGU
Kd: ~56.5 nM
--
binder: target 1 MT 5'PFS UGC 3'PFS AGA (mixed) RNA 1: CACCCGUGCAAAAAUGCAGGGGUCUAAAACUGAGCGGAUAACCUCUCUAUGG RNA 2: GGGAAUGGAUCCACAUCUACGAAUUCUGCCCAUAGAGAGGUUAUCCGCUCAAGAAGAUCGGAAGAGCACACGU
Kd: ~23 nM

Kindly review the next binder as well.
For record target 1 MT 5'PFS UCC 3'PFS UGC (mixed) RNA 1: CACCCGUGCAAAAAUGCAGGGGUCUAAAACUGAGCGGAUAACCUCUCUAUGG RNA 2: GGGAAUGGAUCCACAUCUACGAAUUCUCCCCAUAGAGAGGUUAUCCGCUCAUGCAGAUCGGAAGAGCACACGU the listed Kd is ~12.5 nM

Reference for the values: paper PMC10786891
